System: Escherichia coli TOP10;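 further: peptides expressed intracellularly from a pBAD plasmid library in pooled LB shake-flask culture, induced with 0.3% L-arabinose, DNA abundance read by NGS, three biological replicates, DESeq2 with apeglm shrinkage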
measurement_protocol: shrunken log2 fold change of peptide-encoding DNA abundance (4.5 h post-induction vs induction); higher = less antimicrobial activity (less host growth inhibition)
settings: time post-induction: 4.5 h; library: site-saturation at positions 5, 18, 19, 20
quantity_name: shrunken log2 fold change

{"columns": ["chain", "experimental_target", "quantity_name", "reported_measurement"],
 "data": [
  ["RRIRGRPPRLPRPRPRPAAVPRP", "Escherichia coli TOP10", "shrunken log2 fold change", 1.51],
  ["RRIRCRPPRLPRPRPRPLSIPRP", "Escherichia coli TOP10", "shrunken log2 fold change", -0.917],
  ["RRIRQRPPRLPRPRPRPFGEPRP", "Escherichia coli TOP10", "shrunken log2 fold change", 0.287],
  ["RRIRSRPPRLPRPRPRPHWCPRP", "Escherichia coli TOP10", "shrunken log2 fold change", -0.125],
  ["RRIRRRPPRLPRPRPRPFRGPRP", "Escherichia coli TOP10", "shrunken log2 fold change", -0.105],
  ["RRIRDRPPRLPRPRPRPVFYPRP", "Escherichia coli TOP10", "shrunken log2 fold change", -0.301],
  ["RRIRNRPPRLPRPRPRPCATPRP", "Escherichia coli TOP10", "shrunken log2 fold change", -0.0524],
  ["RRIRIRPPRLPRPRPRPKKAPRP", "Escherichia coli TOP10", "shrunken log2 fold change", -0.209],
  ["RRIRARPPRLPRPRPRPIGHPRP", "Escherichia coli TOP10", "shrunken log2 fold change", 0.0734],
  ["RRIRARPPRLPRPRPRPRAAPRP", "Escherichia coli TOP10", "shrunken log2 fold change", 0.826],
  ["RRIRNRPPRLPRPRPRPSWMPRP", "Escherichia coli TOP10", "shrunken log2 fold change", -0.487],
  ["RRIRHRPPRLPRPRPRPHTEPRP", "Escherichia coli TOP10", "shrunken log2 fold change", -0.406],
  ["RRIRNRPPRLPRPRPRPRVGPRP", "Escherichia coli TOP10", "shrunken log2 fold change", 0.0576],
  ["RRIRPRPPRLPRPRPRPTVLPRP", "Escherichia coli TOP10", "shrunken log2 fold change", -0.225],
  ["RRIRRRPPRLPRPRPRPWHNPRP", "Escherichia coli TOP10", "shrunken log2 fold change", -0.279],
  ["RRIRRRPPRLPRPRPRPCPKPRP", "Escherichia coli TOP10", "shrunken log2 fold change", -0.0745],
  ["RRIRVRPPRLPRPRPRPICFPRP", "Escherichia coli TOP10", "shrunken log2 fold change", 0.0059],
  ["RRIRIRPPRLPRPRPRPLMRPRP", "Escherichia coli TOP10", "shrunken log2 fold change", 0.466],
  ["RRIRRRPPRLPRPRPRPYNAPRP", "Escherichia coli TOP10", "shrunken log2 fold change", -0.964],
  ["RRIRCRPPRLPRPRPRPDWPPRP", "Escherichia coli TOP10", "shrunken log2 fold change", 0.187],
  ["RRIRNRPPRLPRPRPRPRNTPRP", "Escherichia coli TOP10", "shrunken log2 fold change", -0.505],
  ["RRIRERPPRLPRPRPRPYVFPRP", "Escherichia coli TOP10", "shrunken log2 fold change", -0.575],
  ["RRIRGRPPRLPRPRPRPDPEPRP", "Escherichia coli TOP10", "shrunken log2 fold change", 0.593],
  ["RRIRARPPRLPRPRPRPAIKPRP", "Escherichia coli TOP10", "shrunken log2 fold change", 0.206],
  ["RRIRWRPPRLPRPRPRPLWIPRP", "Escherichia coli TOP10", "shrunken log2 fold change", -0.115],
  ["RRIRFRPPRLPRPRPRPIEVPRP", "Escherichia coli TOP10", "shrunken log2 fold change", 0.0653],
  ["RRIRKRPPRLPRPRPRPYILPRP", "Escherichia coli TOP10", "shrunken log2 fold change", -0.0873],
  ["RRIRKRPPRLPRPRPRPYSMPRP", "Escherichia coli TOP10", "shrunken log2 fold change", -0.39],
  ["RRIRCRPPRLPRPRPRPPGIPRP", "Escherichia coli TOP10", "shrunken log2 fold change", 3.39],
  ["RRIRRRPPRLPRPRPRPEVDPRP", "Escherichia coli TOP10", "shrunken log2 fold change", 0.0409],
  ["RRIRWRPPRLPRPRPRPQDCPRP", "Escherichia coli TOP10", "shrunken log2 fold change", -0.014],
  ["RRIRERPPRLPRPRPRPWNLPRP", "Escherichia coli TOP10", "shrunken log2 fold change", -0.00195]
]}
